Test: NCI Yeast Anticancer Drug Screen. Data for the bub3 strain (AID 167)
Conditions: S. cerevisiae bub3 mutant strain, at 50.0 µM
About 79,000 compounds went through this panel and 15% of them were active in at least one assay; those are over-represented in the sample as a whole. Active and inactive are the calls of the source. Rule as the data show it: active = growth inhibition above about 70%; inactive = the rest.
The reply should name one outcome from yes (1) for active, no (0) for inactive

MOLECULE | CATEGORY
CC(C)CSc1nc(N)nc2c1ncn2CC(C)C | no (0)
Cc1ccc2c(c1)C(c1ccccc1)(c1ccccc1)OC2=O | no (0)

Outcome? C=C1C(=O)[C@@]23CC[C@@H]4[C@@]5(C)CCC[C@@]4(OC5=O)[C@@]2(C)CC[C@@H]1C3
yes (1)

Now try CCN(CC)Cc1ccccc1CO .
no (0)

Subsequent entry: Cc1cc(C)n(C2OC(CO)C(O)C(O)C2O)c(=S)c1C#N (configuration not stated)
no (0)

What would you report for CCC(C)OC(=O)C1C(=O)CC(c2ccccc2)C1c1ccccc1 (configuration not stated) ?
no (0)

Moving on to N#CC1(N(O)C(=O)Nc2ccccc2)CCCCC1
no (0)
